test method notes: Phase 1 first-in-human study (NCT04178902): pharmacokinetics
Type: in vivo
condition: human, plasma, intravenous, 0.53 mg/kg, Cycle 1 day 15, 0.53 mg/kg, N=2, individual values; read-out: Cmax
quantity measured: Cmax

Answer with reported Cmax of Cc1c(Cl)c2c(Cl)c(C)c1-c1c(-c3ccc(F)cc3)sc3ncnc(c13)O[C@@H](C(=O)O)Cc1cc(ccc1OCc1ccnc(-c3ccc(OC[C@H]4COCCO4)cc3)n1)OC[C@@H](CN1CCN(C)CC1)O2 [ABBV-467] 1510 ng/mL

---

test method notes: Phase 1 first-in-human study (NCT04178902): pharmacokinetics
Type: in vivo
condition: human, plasma, intravenous, […], Cycle 1 day 1, dose level […] (only half of this dose given), N=3, median; read-out: Tmax (converted)
quantity measured: Tmax (min)
Please respond with the number in min and leave the unit unwritten.

Give the value of Tmax reported for the following: Cc1c(Cl)c2c(Cl)c(C)c1-c1c(-c3ccc(F)cc3)sc3ncnc(c13)O[C@@H](C(=O)O)Cc1cc(ccc1OCc1ccnc(-c3ccc(OC[C@H]4COCCO4)cc3)n1)OC[C@@H](CN1CCN(C)CC1)O2 [ABBV-467] 30
